Target: Melanocortin receptor 4 (Homo sapiens, UniProt P32245)
Sequence (P32245 whole entry): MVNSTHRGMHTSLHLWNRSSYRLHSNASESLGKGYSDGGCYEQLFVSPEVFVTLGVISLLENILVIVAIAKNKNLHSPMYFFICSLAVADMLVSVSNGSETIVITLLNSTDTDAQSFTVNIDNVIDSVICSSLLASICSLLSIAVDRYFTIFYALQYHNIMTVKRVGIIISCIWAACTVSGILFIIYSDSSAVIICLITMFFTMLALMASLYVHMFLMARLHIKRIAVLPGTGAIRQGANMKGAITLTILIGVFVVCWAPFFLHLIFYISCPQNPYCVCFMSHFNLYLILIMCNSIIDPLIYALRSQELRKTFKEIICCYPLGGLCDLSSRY
Assay: Displacement of [125I]NDP-MSH from human recombinant MC4 receptor expressed in Sf9 cells
One threshold, 7 µM, splits the recorded Ki values: lower ones are class 1, equal or higher ones are class 0.

molecule	group
NCc1cccc(CN(Cc2ccccc2)C(=O)CCCc2c[nH]c3ccccc23)c1	class 0
NCCCCCCN(Cc1ccccc1)C(=O)CCCc1c(Cc2ccc(O)cc2)[nH]c2ccccc12	class 1
CC1CC(CC2CCC(N(Cc3ccccc3)C(=O)CCCc3c[nH]c4ccccc34)C(C)C2)CCC1N (stereo in doubt; form 2)	class 1

[Q] Strictly below 7 µM: is that where Ki of NCCCCCCCN(C/C(Cl)=C/c1ccccc1)C(=O)CCCc1c[nH]c2ccccc12 sits?
[A] class 0

[Q] Strictly below 7 µM: is that where Ki of NCCN(Cc1ccccc1)C(=O)CCCc1c[nH]c2ccccc12 sits?
[A] class 0

[Q] Strictly below 7 µM: is that where Ki of NCCCN(CCCc1ccccc1)C(=O)Cc1c[nH]c2ccccc12 sits?
[A] class 0

[Q] Strictly below 7 µM: is that where Ki of NC1CCC(CC2CCC(N(C/C(Cl)=C/c3ccccc3)C(=O)c3cc4cc(OCc5ccccc5)ccc4[nH]3)CC2)CC1 (centres undefined) sits?
[A] class 1

[Q] Strictly below 7 µM: is that where Ki of COc1cc(Cl)c(CN(C(=O)CCCc2c(Cc3ccc(O)cc3)[nH]c3ccccc23)C2CCC(CC3CCC(N)CC3)CC2)cc1OC (centres undefined) sits?
[A] class 1

====

Molecular target: Melanocyte-stimulating hormone receptor (Mus musculus)
Sequence (Q01727 whole entry): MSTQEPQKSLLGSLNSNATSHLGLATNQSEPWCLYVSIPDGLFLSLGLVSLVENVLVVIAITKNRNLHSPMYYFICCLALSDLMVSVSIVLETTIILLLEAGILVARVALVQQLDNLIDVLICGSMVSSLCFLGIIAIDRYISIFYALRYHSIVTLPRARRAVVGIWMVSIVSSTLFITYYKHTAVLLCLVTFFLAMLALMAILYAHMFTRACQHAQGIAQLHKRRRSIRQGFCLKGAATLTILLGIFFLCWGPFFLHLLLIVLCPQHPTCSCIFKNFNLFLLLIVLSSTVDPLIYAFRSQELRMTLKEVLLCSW
Experiment: Displacement of [125I]NDP-MSH from MC1 receptor in mouse B16 cells
Type: cell-based
Below, each of the molecules is paired with its reported pKi value.
Interpret pKi as the negative base-10 log of the concentration measured in mol/L.

Solved cases below.
structure notation	pKi
N[C@H]1CC[C@H](NC(=O)N[C@H]2CC[C@H](N(Cc3ccccc3)C(=O)CCCc3c[nH]c4ccccc34)CC2)CC1	4.96
COc1cc(Br)c(CN(C(=O)CCCc2c(Cc3ccc(O)cc3)[nH]c3ccccc23)[C@H]2CC[C@@H](C[C@H]3CC[C@H](N)CC3)CC2)cc1OC	5.54
NCCCCCN(Cc1ccc2ccccc2c1)C(=O)CCCc1c[nH]c2ccccc12	5.29

Please look at the following molecule next.
For NC(N)=NCCCN(Cc1ccc2ccccc2c1)C(=O)CCCc1c[nH]c2ccccc12 the molecule record lists pKi as 5.72

====

Target: Melanocyte-stimulating hormone receptor (Mus musculus)
Assay: Displacement of [125I]NDP-MSH from MC1 receptor in mouse B16 cells
Format: cell-based
value kind: pKi
Interpret pKi as the negative base-10 log of the concentration measured in mol/L.

Solved cases below.
compound	pKi
N=C(N)NCCCN(Cc1ccc2ccccc2c1)C(=O)Cc1c[nH]c2ccccc12	4.46
COC(=O)c1ccc(CN(C(=O)CCCc2c(Cc3ccc(O)cc3)[nH]c3ccccc23)C2CCC(CC3CCC(N)CC3)CC2)cc1 (centres undefined)	5.37
NCCCCN(C/C(Cl)=C/c1ccccc1)C(=O)CCCc1c[nH]c2ccccc12	5.62
N=C(N)NCCCCN(Cc1ccc2ccccc2c1)C(=O)Cc1c[nH]c2ccccc12	4.77
N=C(N)NCCCN(Cc1ccc2ccccc2c1)C(=O)CCc1c[nH]c2ccccc12	4.92

For COc1cc(Cl)c(CN(C(=O)CCCc2c(Cc3ccc(O)cc3)[nH]c3ccccc23)C2CCC(CC3CCC(N)CC3)CC2)cc1OC (centres undefined) the compound record lists pKi as 6.20

For NC1CCCC(NC(=O)NC2CCCC(N(C/C(Cl)=C/c3ccccc3)C(=O)CCCc3c[nH]c4ccccc34)C2)C1 (centres undefined) the compound record lists pKi as 5.51

For NCCCN1CCN(CCCN(C/C(Cl)=C/c2ccccc2)C(=O)CCCc2c[nH]c3ccccc23)CC1 the compound record lists pKi as 5.34

For NC1CCC(CC2CCC(N(C/C(Cl)=C/c3ccccc3)C(=O)CCCc3c[nH]c4ccccc34)CC2)CC1 (stereo in doubt; form 3) the compound record lists pKi as 5.64

For NCCCN(C(=O)Cc1c[nH]c2ccccc12)C1CCc2ccccc2C1 (centres undefined) the compound record lists pKi as 5.62

For NC1CCC(CC2CCC(N(Cc3c(Cl)cccc3Cl)C(=O)CCCc3c[nH]c4ccccc34)CC2)CC1 (centres undefined) the compound record lists pKi as 5.60

For NC1CCC(CC2CCC(N(C/C(Cl)=C/c3ccccc3)C(=O)COc3ccc4ccccc4c3)CC2)CC1 (stereo in doubt; form 8) the compound record lists pKi as 5.80

For NC1CCC(CC2CCC(N(C/C(Cl)=C/c3ccccc3)C(=O)COc3ccc4ccccc4c3)CC2)CC1 (stereo in doubt; form 3) the compound record lists pKi as 6.39

For CCOc1cc(CN(C(=O)CCCc2c[nH]c3ccccc23)C2CCC(CC3CCC(N)CC3)CC2)ccc1OC (centres undefined) the compound record lists pKi as 5.54
